Test system: P. aeruginosa MP-3
Assay: MIC determination by CLSI broth dilution, P. aeruginosa MP-3
Format: cell-based
Details: Pseudomonas aeruginosa, MP3, strain MP-3
readout.label: MIC

Illustrative cases are given below, each with its answer.
CCCN1CC(C[C@@H]2COC(=O)C(C)(C)C(=O)[C@H](C)[C@@H](O[C@@H]3O[C@H](C)C[C@H](N(C)C)[C@H]3O)[C@](C)(OC)C[C@@H](C)CN2C)C1 > 32 µg/mL
CO[C@]1(C)C[C@@H](C)CN(C)[C@@H](CN2CCN(C(=O)C(F)(F)F)CC2)[C@H](C)OC(=O)C(C)(C)C(=O)[C@H](C)[C@H]1O[C@@H]1O[C@H](C)C[C@H](N(C)C)[C@H]1O > 32 µg/mL

IN: Give MIC for "CO[C@]1(C)C[C@@H](C)CN(C)[C@H](C=C2CCN(CC3CC3)CC2)COC(=O)C(C)(C)C(=O)[C@H](C)[C@H]1O[C@@H]1O[C@H](C)C[C@H](N(C)C)[C@H]1O"
OUT: > 32 µg/mL

* * *

Tested on: K. pneumoniae MP-546
Test: MIC determination by CLSI broth dilution, K. pneumoniae MP-546
Format: cell-based
Settings: Klebsiella pneumoniae, MP546, CLSI broth dilution; strain MP-546
readout.label: MIC

compound	readout.label	recorded.value
CO[C@]1(C)C[C@@H](C)CN(C)[C@@H](CC2CCN(CC3CCCCC3)CC2)COC(=O)C(C)(C)C(=O)[C@H](C)[C@H]1O[C@@H]1O[C@H](C)C[C@H](N(C)C)[C@H]1O [Compound 72]	MIC	4 to 32 µg/mL
CO[C@]1(C)C[C@@H](C)CN(C)[C@@H](C(=O)N2CCN(C)CC2)[C@H](C)OC(=O)C(C)(C)C(=O)[C@H](C)[C@H]1O[C@@H]1O[C@H](C)C[C@H](N(C)C)[C@H]1O [Compound 97]	MIC	> 32 µg/mL

Could you now look at the following compound, please?
IN: Give MIC for CCCN1CCC(CC[C@@H]2COC(=O)C(C)(C)C(=O)[C@H](C)[C@@H](O[C@@H]3O[C@H](C)C[C@H](N(C)C)[C@H]3O)[C@](C)(OC)C[C@@H](C)CN2C)CC1 [Compound 75]
OUT: > 32 µg/mL

* * *

Tested on: K. pneumoniae MP-648
Experiment: MIC determination by CLSI broth dilution, K. pneumoniae MP-648
Assay type: cell-based
Conditions: Klebsiella pneumoniae, MP648, CLSI broth dilution; strain MP-648
readout.label: MIC

Illustrative cases are given below, each with its answer.
CCCN1C[C@H](C)C[C@@](C)(OC)[C@H](O[C@@H]2O[C@H](C)C[C@H](N(C)C)[C@H]2O)[C@@H](C)C(=O)C(C)(C)C(=O)OC[C@H]1CCCN1CCc2ncncc2C1 4 to 32 µg/mL
CCN(C)CC[C@@H](O)[C@@H]1COC(=O)C(C)(C)C(=O)[C@H](C)[C@@H](O[C@@H]2O[C@H](C)C[C@H](N(C)C)[C@H]2O)[C@](C)(OC)C[C@@H](C)CN1CC < 4 µg/mL
CO[C@]1(C)C[C@@H](C)CN(C)[C@H](C=C2CCN(CC3CC3)CC2)COC(=O)C(C)(C)C(=O)[C@H](C)[C@H]1O[C@@H]1O[C@H](C)C[C@H](N(C)C)[C@H]1O 4 to 32 µg/mL
CO[C@]1(C)C[C@@H](C)CN(C)[C@@H](CCCN2CC[C@H](F)C2)COC(=O)C(C)(C)C(=O)[C@H](C)[C@H]1O[C@@H]1O[C@H](C)C[C@H](N(C)C)[C@H]1O 4 to 32 µg/mL
CCN1C[C@H](C)C[C@@](C)(OC)[C@H](O[C@@H]2O[C@H](C)C[C@H](N(C)C)[C@H]2O)[C@@H](C)C(=O)C(C)(C)C(=O)OC[C@H]1[C@H](O)CCN(C)Cc1ccccc1 < 4 µg/mL

IN: Give MIC for "CO[C@]1(C)C[C@@H](C)CN(C)[C@@H](CCCN2CCC(F)(F)CC2)COC(=O)C(C)(C)C(=O)[C@H](C)[C@H]1O[C@@H]1O[C@H](C)C[C@H](N(C)C)[C@H]1O"
OUT: 4 to 32 µg/mL

IN: Give MIC for "CCCN1C[C@H](C)C[C@@](C)(OC)[C@H](O[C@@H]2O[C@H](C)C[C@H](N(C)C)[C@H]2O)[C@@H](C)C(=O)C(C)(C)C(=O)OC[C@@H]1CCCN(C)C(C)C"
OUT: < 4 µg/mL

IN: Give MIC for "CO[C@]1(C)C[C@@H](C)CN(C)[C@@H](CCCN2CCC2)COC(=O)C(C)(C)C(=O)[C@H](C)[C@H]1O[C@@H]1O[C@H](C)C[C@H](N(C)C)[C@H]1O"
OUT: 4 to 32 µg/mL
